Test system: HT-29
Protocol Text: Cytotoxicity against human HT-29 cells by MTT assay
Format: functional, cell-based
Task for the reader: assign each of the following compounds its reported IC50.
One number for each entry, in µM.

The cases that follow already have their IC50 on record.
*Q* What value of measured IC50 is listed for `CCCCCCn1c2ccccc2c2cc[n+](Cc3ccccc3)cc21` ?
*A* 16

*Q* # iterate: `CCCCCCCC[n+]1ccc2c3ccccc3n(CCCc3ccccc3)c2c1`
*A* 18.6

*Q* Moving on to the next compound: `c1ccc(CCCn2c3ccccc3c3cc[n+](Cc4ccccc4)c(-c4ccsc4)c32)cc1`
*A* 31.3

*Q* // query: `CCCCCC[n+]1ccc2c3ccccc3n(CCCc3ccccc3)c2c1`
*A* 2.3

Moving on to another compound below.
*Q* Item under review: `COc1ccc(Cn2c3ccccc3c3cc[n+](Cc4ccccc4)cc32)cc1.[Br-]` . Reported IC50?
*A* 19.2
